Numbers sourced from PubChem BioAssay (NCI).

- Test system: NCI-H322M lung
- Run description: NCI-60 one-dose screen, 48 h (100 = growth as untreated, 0 = no growth, -100 = all killed)
- Experimental conditions: 10 µM unless noted
Compounds without any hit were thinned out: in the full panel of roughly 83,000, 20% have a hit.
Assay endpoint: growth (%)

{"columns": ["Compound", "Assay endpoint", "Reported result"],
 "data": [
  ["Cc1cccc(Cl)c1NC(=O)c1cnc(Nc2cc(N3CCOCC3)cc(S(C)(=O)=O)c2)s1", "growth", -6.54],
  ["O=C1/C(=C\\c2cccc(OCCCCCOc3ccc(Cl)cc3)c2)N=C2SCCCN12", "growth", 101],
  ["Cc1ccc2oc(=O)cc(-c3cc(-c4cc5ccccc5oc4=O)nc(N)c3C#N)c2c1", "growth", 72.8],
  ["O=S1(=O)OC(c2ccc(O)c(Cl)c2)(c2ccc(O)c(Cl)c2)c2ccccc21", "growth", 107],
  ["Cn1cnc2c(F)c(Nc3ccc(Br)cc3F)c(C(=O)NOCCO)cc21", "growth", 18.9],
  ["CC1(O)CCC2CC3OC3(C)CCC3OC3(C)C(O)CC1C2(C)C (stereo not given)", "growth", 115],
  ["COc1cc(Nc2c(C#N)cnc3cc(OCCCN4CCN(C)CC4)c(OC)cc23)c(Cl)cc1Cl", "growth", 13.3],
  ["C[C@@H]1COC(Nc2ccc3ncnc(Nc4ccc(OCc5nccs5)c(Cl)c4)c3c2)=N1", "growth", 20.1],
  ["CCc1cc2c(c3ccc(C(=O)CBr)cc13)CCCC2", "growth", 77.5],
  ["CCc1nc2cc(F)c(/C=C/C(=O)NO)cc2c(=O)n1CCc1ccccc1", "growth", 23.1]
]}
